Test system: C33A
EXPERIMENT NOTES: Primary qHTS to identify gynecologic anti-cancer compounds using libraries of approved drugs and bioactive compounds (AID 1345084); note: nearly all actives have a fitted effect of over 55% in size; note: potency is the fitted concentration of half-maximal effect
CONDITION DESCRIPTION: Gynecologic cancer cell panel viability, ATPlite luminescence, 48 h; series mostly up to 57.5 µM
Records with an inconclusive call do not appear. Activity calls are given as the source filed them. Calls come from the whole dose curve; as a rule, active = well fitted cell-killing curve with a large enough effect; inconclusive = small, poorly fitted or top-dose-only effect, or effect the other way; inactive = flat fitted curve, though single readings scatter.
Catalogue of compounds with associated Potency

COMPOUND	MEASUREMENT NAME	ASSAY RESULT
Nc1ccccc1N	Potency	10 µM (active)

Prompt: Supply reported Potency belonging to this compound: CC(=O)O[C@@H]1C[C@H](O)[C@@]23CO[C@H](O)[C@]1(C)C2C[C@@H](O)[C@]1(C)C3C(=O)[C@H](OC(C)=O)[C@@]2(C)[C@H](c3ccoc3)C[C@H]3O[C@]321 (stereo partly drawn)
Completion: 1.12 µM (active)

Prompt: Supply reported Potency belonging to this compound: Cc1cccc(C)c1-n1c(=O)c2cnc(Nc3ccc(N4CCN(C)CC4)cc3)nc2n2c3ccccc3nc12
Completion: 2.82 µM (active)

====

System: PA-1
EXPERIMENT NOTES: Primary qHTS to identify gynecologic anti-cancer compounds using libraries of approved drugs and bioactive compounds (AID 1345084); note: nearly all actives have a fitted effect of over 55% in size
CONDITION DESCRIPTION: Gynecologic cancer cell panel viability, ATPlite luminescence, 48 h; series mostly up to 57.5 µM
Results filed as inconclusive are left out. Active and inactive are the calls of the source. Calls come from the whole dose curve; as a rule, active = well fitted cell-killing curve with a large enough effect; inconclusive = small, poorly fitted or top-dose-only effect, or effect the other way; inactive = flat fitted curve, though single readings scatter.
Output constraint: value belongs to active, inactive

These recorded examples may help you get a feel for the data.
SUBSTANCE SMILES	GROUP
CC(C)(F)C[C@@H](N[C@@H](c1ccc(-c2ccc(S(C)(=O)=O)cc2)cc1)C(F)(F)F)C(=O)NC1(C#N)CC1	inactive
CC(=O)O[C@@H]1c2c3c(cc(O)c2C(=O)O[C@@H]1C)O[C@@]1(C)[C@@H](O)C[C@H]2C(C)(C)C(=O)C=C[C@]2(C)[C@@H]1C3	inactive

Prompt: Fill in: this test's call for CCOCc1cc(OC)c(-c2ccc(C[C@H](NC(=O)c3c(F)cccc3F)C(=O)O)cc2)c(OC)c1 is ___
Completion: inactive

Prompt: Fill in: this test's call for O=C(/C=C\n1cnc(-c2cc(C(F)(F)F)cc(C(F)(F)F)c2)n1)N1CC(F)(F)C1 is ___
Completion: active

====

Tested on: KB-3-1
EXPERIMENT NOTES: Cytotoxic Profiling of Annotated Libraries Using Quantitative High-Throughput Screening (AID 1296008); note: % is set by controls: 0 for no effect and ±100 for the full control effect; nearly all actives have a fitted effect of over 60% in size
CONDITION DESCRIPTION: Five cell lines viability, CellTiter-Glo ATP luminescence, 48-72 h; hits give low values
Records with an inconclusive call do not appear.
MEASUREMENT NAME: max response (%)
Reply with just the number (in %).

Prompt: Supply reported max response belonging to this compound: CC1(C)CC2C(O)c3cocc3CC(C)(O)C2C1 (centres undefined)
Completion: 5.78

Prompt: Supply reported max response belonging to this compound: Nc1nc2c(ncn2[C@@H]2O[C@H](CO)[C@@H](O)[C@H]2O)c(=O)[nH]1
Completion: 4.1

Prompt: Supply reported max response belonging to this compound: COc1ccc(CC2NCCc3c2[nH]c2ccc(C)cc32)cc1OC (centres undefined)
Completion: -15.3

Prompt: Supply reported max response belonging to this compound: C=C1C(=O)OC2/C=C(\CO)CC/C=C(\C=O)CC(OC(=O)CC(C)C)C12 (centres undefined)
Completion: -5.58

Prompt: Supply reported max response belonging to this compound: C=CC(C)(O)C(O)CC1C(C)(O)C(O)C(O)C2C(C)(C)CCCC21C (centres undefined)
Completion: -10.5

Prompt: Supply reported max response belonging to this compound: CC1(C)CCCC2(C)C1CC(=O)C13CC(CCC12)C(O)(CO)C3 (centres undefined)
Completion: 8.26

Prompt: Supply reported max response belonging to this compound: C=C[C@H]1[C@H](O[C@@H]2O[C@H](CO)[C@@H](O)[C@H](O)[C@H]2O)OC=C(C(=O)OC)[C@H]1C/C=C(/C=O)[C@@H]1C(C(=O)OC)=CO[C@@H](O[C@@H]2O[C@H](CO)[C@@H](O)[C@H](O)[C@H]2O)[C@@H]1C=C
Completion: 1.41

Prompt: Supply reported max response belonging to this compound: CC(C)[N+]1(C)C2CCC1CC(OC(=O)C(CO)c1ccccc1)C2 (centres undefined)
Completion: -2.64
